Consider the following compounds and their measured pIC50 readings.
STUDY_SYSTEM: Recombinant human BRD4 containing dual bromodomains (BRD4-BD12 (1-477)) (Homo sapiens)
Construct: Recombinant human BRD4 containing dual bromodomains (BRD4-BD12 (1-477)); made in house; host or cells: E. coli BL21-CodonPlus (DE3), modified pET vector
PROTOCOL_TEXT: BRD4 Alphascreen binding assay
pIC50: −log10 of the molar value.

Record excerpt, results attached:
>>> result("Cc1noc(C)c1-c1cnc2c(c1)c(-c1ccnc(C(=O)O)c1)cn2C(c1ccccn1)C1CCCC1 (stereo not shown)")
"5.10 to 6.00"
>>> result("Cc1noc(C)c1-c1cnc2c(c1)c(-c1ccc(C(=O)O)cc1OC(C)C)cn2[C@@H](C)c1ccccn1")
"3.00 to 5.10"
>>> result("Cc1noc(C)c1-c1cnc2c(c1)c(-c1ccc(F)c(C(=O)O)c1F)cn2[C@@H](C)c1ccccn1")
"3.00 to 5.10"
>>> result("Cc1noc(C)c1-c1cnc2c(c1)c(-c1ccc(C(=O)O)cc1OC(F)(F)F)cn2C1CCC(F)(F)CC1")
"5.10 to 6.00"
>>> result("Cc1noc(C)c1-c1cnc2c(c1)c(-c1ccc(C(=O)O)cc1OC(F)F)cn2-c1ccccc1")
"5.10 to 6.00"

Let us move to another entry and its pIC50.
Looking for the measured pIC50 of Cc1noc(C)c1-c1cnc2c(c1)c(-c1c(Cl)cc(C(=O)O)cc1OCC(F)F)cn2-c1ccccc1 , can you help?
5.10 to 6.00
